Measured responders at 1 mg/kg values are reported for all entries that follow.
test system: homologous PCA (passive cutaneous anaphlaxis) of rats; test: Homologous PCA (passive cutaneous anaphylaxis) test of rats for 48 hours, oral (antiallergic activity); format: in vivo, Wistar male rats; conditions: Rattus norvegicus, po, dosage 1 mg/kg, positive = inhibition rate 50% or higher, read-out: Number of positive zooids in one group of 3 zooids (converted)
quantity.measured: responders at 1 mg/kg (%)

• CN1CCN(CC=C2c3ccccc3COc3ccc(CC(=O)O)cc32)CC1 = 66.7
• CN(C)CCCC=C1c2ccccc2COc2ccc(C(=O)O)cc21 = 66.7
• CCN(CC)CCN=C1c2ccccc2COc2ccc(CC(=O)O)cc21 = 100
• O=C(O)c1ccc2c(c1)C(=CCCN1CCCC1)c1ccccc1CO2 = 33.3
• CN(C)CC/C=C1/c2ccccc2COc2ccc(C(=O)O)cc21 [Compound 3 (cis)] = 100
• CC(C(=O)O)c1ccc2c(c1)C(=NCCN(C)C)c1ccccc1CO2 (stereo not shown) = 66.7
• CN(C)CCC=C1c2ccccc2COc2ccc(CCC(=O)O)cc21 = 100

###

tested on: homologous PCA (passive cutaneous anaphlaxis) of rats; assay: Homologous PCA (passive cutaneous anaphylaxis) test of rats for 48 hours, oral (antiallergic activity); assay type: in vivo, Wistar male rats; conditions: Rattus norvegicus, po, dosage 1 mg/kg, positive = inhibition rate 50% or higher, read-out: Number of positive zooids in one group of 3 zooids (converted)
Measured responders at 1 mg/kg values are reported for all entries that follow.
quantity.measured: responders at 1 mg/kg (%)

• CN(C)CC/C=C1/c2ccccc2COc2ccc(CCC(=O)O)cc21 [Compound 28 (cis)] = 100
• CN(C)CC/C=C1/c2ccccc2COc2ccc(/C=C/C(=O)O)cc21 = 66.7
• O=C(O)c1ccc2c(c1)C(=CCCN1CCSCC1)c1ccccc1CO2 = 100
• CCN(CC)CCN=C1c2ccccc2COc2ccc(C(=O)O)cc21 = 0
• CN(C)CCCN=C1c2ccccc2COc2ccc(CC(=O)O)cc21 = 33.3
• CCN(CC)CC/C=C1/c2ccccc2COc2ccc(C(=O)O)cc21 = 100
• CN(C)CC/C=C1\c2ccccc2COc2ccc(CCC(=O)O)cc21 [Compound 28 (trans)] = 66.7
• CN(C)CCCC=C1c2ccccc2COc2ccc(CC(=O)O)cc21 = 66.7
• CN(C)CC/C=C1\c2ccccc2COc2ccc(C(=O)O)cc21 = 33.3
• CN(C)CC/C=C1/c2ccccc2COc2ccc(CC(=O)O)cc21 [Compound 20 (cis)] = 100
• CN(C)CC/C=C1/c2ccccc2COc2ccc(CCO)cc21 [Compound 31 (cis)] = 100
• CN(C)CC/C=C1\c2ccccc2COc2ccc(CC(=O)O)cc21 = 100
• O=C(O)c1ccc2c(c1)/C(=C\CN1CCSCC1)c1ccccc1CO2 = 0
• CCN(CC)CCN=C1c2ccccc2COc2ccc(CCC(=O)O)cc21 = 0
• CN(C)CCN=C1c2ccccc2COc2ccc(CC(=O)O)cc21 = 0
• O=C(O)c1ccc2c(c1)C(=CCN1CCOCC1)c1ccccc1CO2 = 0
• CN(C)CC/C=C1/c2ccccc2COc2ccc(CCCO)cc21 = 33.3
• O=C(O)c1ccc2c(c1)C(=CCCN1CCOCC1)c1ccccc1CO2 = 100
• CN1CCN(C/C=C2\c3ccccc3COc3ccc(C(=O)O)cc32)CC1 = 0

###

Measured responders at 10 mg/kg values are reported for all entries that follow.
tested on: homologous PCA (passive cutaneous anaphlaxis) of rats; test: Homologous PCA (passive cutaneous anaphylaxis) test of rats for 48 hours, oral (antiallergic activity); assay type: in vivo, Wistar male rats; settings: Rattus norvegicus, po, dosage 10 mg/kg, positive = inhibition rate 50% or higher, read-out: Number of positive zooids in one group of 3 zooids (converted)
quantity.measured: responders at 10 mg/kg (%)

• O=C(O)c1ccc2c(c1)C(=CCN1CCOCC1)c1ccccc1CO2 = 33.3
• CCN(CC)CCN=C1c2ccccc2COc2ccc(CCC(=O)O)cc21 = 66.7
• CN(C)CCC=C1c2ccccc2COc2ccc(CCC(=O)O)cc21 = 100
• O=C(O)c1ccc2c(c1)C(=CCCN1CCSCC1)c1ccccc1CO2 = 100
• CN(C)CC/C=C1/c2ccccc2COc2ccc(CCO)cc21 [Compound 31 (cis)] = 100
• CN(C)CC/C=C1\c2ccccc2COc2ccc(CCC(=O)O)cc21 [Compound 28 (trans)] = 100
• CN(C)CC/C=C1/c2ccccc2COc2ccc(CCC(=O)O)cc21 [Compound 28 (cis)] = 66.7
• CN(C)CCCC=C1c2ccccc2COc2ccc(CC(=O)O)cc21 = 100
• O=C(O)c1ccc2c(c1)C(=CCCN1CCOCC1)c1ccccc1CO2 = 100

###

Measured responders at 10 mg/kg values are reported for all entries that follow.
system: homologous PCA (passive cutaneous anaphlaxis) of rats; assay: Homologous PCA (passive cutaneous anaphylaxis) test of rats for 48 hours, oral (antiallergic activity); assay type: in vivo, Wistar male rats; details: Rattus norvegicus, po, dosage 10 mg/kg, positive = inhibition rate 50% or higher, read-out: Number of positive zooids in one group of 3 zooids (converted)
quantity.measured: responders at 10 mg/kg (%)

* CN(C)CCCN=C1c2ccccc2COc2ccc(CC(=O)O)cc21 | 66.7
* CN(C)CC/C=C1\c2ccccc2COc2ccc(CCO)cc21 | 100
* CN(C)CC/C=C1/c2ccccc2COc2ccc(CC(=O)O)cc21 [Compound 20 (cis)] | 100
* CCN(CC)CCN=C1c2ccccc2COc2ccc(CC(=O)O)cc21 | 66.7
* CN(C)CC/C=C1/c2ccccc2COc2ccc(/C=C/C(=O)O)cc21 | 100
